Data credit: patent US20120121507A1

target: T1, recombinant human clusterin (human, UniProt P10909 23-449); experiment: SPR, rh-clusterin alone flowed over immobilized P3378, fit of the response against the clusterin concentration [inset]
T1 construct: also called rhCLU; rh-clusterin
T1 sequence (P10909 23-449 limits assumed): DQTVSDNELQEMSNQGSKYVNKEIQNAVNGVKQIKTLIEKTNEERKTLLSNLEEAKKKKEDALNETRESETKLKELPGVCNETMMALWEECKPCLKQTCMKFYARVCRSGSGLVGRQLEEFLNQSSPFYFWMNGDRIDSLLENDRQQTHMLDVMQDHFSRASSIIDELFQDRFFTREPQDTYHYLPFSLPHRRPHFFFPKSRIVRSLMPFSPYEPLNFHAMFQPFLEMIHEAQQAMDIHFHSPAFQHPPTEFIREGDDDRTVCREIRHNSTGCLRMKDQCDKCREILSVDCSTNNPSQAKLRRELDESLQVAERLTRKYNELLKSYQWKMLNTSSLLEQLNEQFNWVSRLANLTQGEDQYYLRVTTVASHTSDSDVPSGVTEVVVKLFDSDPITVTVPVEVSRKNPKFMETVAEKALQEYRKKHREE
assay.readout: pKd
The value called pKd is obtained by taking minus log10 of the concentration in mol/L.

Q. Annotate the binder HPLSKHPYWSQPSGSGC (Synthesised by Fmoc chemistry; In SPR it was immobilised on a CM5 chip by a thioether bond from the C-terminal Cys to maleimide; In STD-NMR it was free in solution) [P3378 synthetic peptide (HPLSKHPYWSQP with C-terminal SGSGC extension)] with its measured pKd.
A. 6.29
